target: T1, succinyl-L-Ala-L-Ala-L-Pro-L-Phe-p-nitroanilide (SEQ ID NO: 1)
T1 chain: AAPF
Record form. Attribute: kcat pH 10 (% half-life of wild-type) (% of wild-type). Fill in for each entry.
Numbers only.

Solved cases (2 shown):
N74D/S101A/V102W (control variant of WO1995010591; sequence SEQ ID NO: 3) (protein) AQSVPWGISRVQAPAAHNRGLTGSGVKVAVLDTGISTHPDLNIRGGASFVPGEPSTQDGNGHGTHVAGTIAALDNSIGVLGVAPSAELYAVKVLGASGSGAWSSIAQGLEWAGNNGMHVANLSLGSPSPSATLEQAVNSATSRGVLVVAASGNSGAGSISYPARYANAMAVGATDQNNNRASFSQYGAGLDIVAPGVNVQSTYPGSTYASLNGTSMATPHVAGAAALVKQKNPSWSNVQIRNHLKNTATSLGSTNLYGSGLVNAEAATR    554
N74D/S99G/V102W/S126G/D191E/N198G/N212S/T254P (variant of sequence SEQ ID NO: 4) (protein) AQSVPWGISRVQAPAAHNRGLTGSGVKVAVLDTGISTHPDLNIRGGASFVPGEPSTQDGNGHGTHVAGTIAALDNSIGVLGVAPSAELYAVKVLGASGGGSWSSIAQGLEWAGNNGMHVANLSLGGPSPSATLEQAVNSATSRGVLVVAASGNSGAGSISYPARYANAMAVGATDQNNNRASFSQYGAGLEIVAPGVGVQSTYPGSTYASLSGTSMATPHVAGAAALVKQKNPSWSNVQIRNHLKNTATSLGSPNLYGSGLVNAEAATR    719

Turning now to a further record.
Lab note: N74D/S97D/S126G/P204I/T254P/S259N (variant of sequence SEQ ID NO: 6) (protein) AQSVPWGISRVQAPAAHNRGLTGSGVKVAVLDTGISTHPDLNIRGGASFVPGEPSTQDGNGHGTHVAGTIAALDNSIGVLGVAPSAELYAVKVLGADGSGSVSSIAQGLEWAGNNGMHVANLSLGGPSPSATLEQAVNSATSRGVLVVAASGNSGAGSISYPARYANAMAVGATDQNNNRASFSQYGAGLDIVAPGVNVQSTYIGSTYASLNGTSMATPHVAGAAALVKQKNPSWSNVQIRNHLKNTATSLGSPNLYGNGLVNAEAATR gave kcat pH 10 (% half-life of wild-type) (% of wild-type) of 37
